# target-of-assay: 5-HT2 receptors (Rattus norvegicus)
# Construct: rat frontal cortex homogenates; from tissue; host or cells: rat frontal cortex
# Sequence (P14842 whole entry): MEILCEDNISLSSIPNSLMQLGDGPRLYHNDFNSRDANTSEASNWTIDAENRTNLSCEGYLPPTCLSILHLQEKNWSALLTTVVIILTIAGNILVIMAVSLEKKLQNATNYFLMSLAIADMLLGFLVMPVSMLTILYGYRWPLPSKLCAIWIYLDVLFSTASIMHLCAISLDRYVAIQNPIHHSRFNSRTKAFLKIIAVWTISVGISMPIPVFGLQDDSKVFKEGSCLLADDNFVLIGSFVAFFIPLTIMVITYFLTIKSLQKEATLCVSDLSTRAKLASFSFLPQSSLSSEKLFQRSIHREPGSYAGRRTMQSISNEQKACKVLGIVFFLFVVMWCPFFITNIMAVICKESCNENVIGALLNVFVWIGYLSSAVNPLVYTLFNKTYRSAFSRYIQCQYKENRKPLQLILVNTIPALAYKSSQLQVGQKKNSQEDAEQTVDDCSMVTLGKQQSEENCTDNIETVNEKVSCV
# method-notes: Displacement of aminoiodoketaneserine at 5-HT2 receptors
# Type: binding
# experimental-parameters: rat frontal cortex homogenates
measurement-label: IC50 (µM)

- molecule: "CCN(CC)CCON=C1c2scc(C)c2-n2cccc21"
  measurement-label: "IC50"
  data-value: 13
- molecule: "CC(CON=C1c2ccccc2-n2cccc21)N(C)C (centres unmarked)"
  measurement-label: "IC50"
  data-value: 12
- molecule: "CN(C)CCON=C1c2cc(Cl)ccc2-n2cccc21"
  measurement-label: "IC50"
  data-value: 7.6
- molecule: "Cc1ccc2c(c1)C(=NOCCC1CCCN1C)c1cccn1-2 (centres unmarked)"
  measurement-label: "IC50"
  data-value: 22
- molecule: "Cc1csc2c1-n1cccc1/C2=N/OCCCN(C)C"
  measurement-label: "IC50"
  data-value: 42
- molecule: "Cc1csc2c1-n1cccc1C2=NOCCN1CCCCC1"
  measurement-label: "IC50"
  data-value: 5.2
- molecule: "Cc1csc2c1-n1cccc1/C2=N/OCC(C)CN(C)C (centres unmarked)"
  measurement-label: "IC50"
  data-value: 14
- molecule: "Cc1csc2c1-n1cccc1/C2=N/OCCN"
  measurement-label: "IC50"
  data-value: 15
- molecule: "Cc1csc2c1-n1cccc1C2=NOC(CCN(C)C)c1ccccc1 (centres unmarked)"
  measurement-label: "IC50"
  data-value: 2.2
- molecule: "Cc1csc2c1-n1cccc1C2=NOCCN1CCCC1"
  measurement-label: "IC50"
  data-value: 3.7
- molecule: "Cc1ccc2c(c1)C(=NOCC(C)N(C)C)c1cccn1-2 (centres unmarked)"
  measurement-label: "IC50"
  data-value: 8.4
- molecule: "Cc1csc2c1-n1cccc1/C2=N/OCCNCc1ccccc1"
  measurement-label: "IC50"
  data-value: 4.1
- molecule: "CN(C)CCON=C1c2sccc2-n2cccc21"
  measurement-label: "IC50"
  data-value: 5
- molecule: "Cc1csc2c1-n1cccc1/C2=N/OCCN(C)C"
  measurement-label: "IC50"
  data-value: 3.1
- molecule: "CN(C)CCON=C1c2ccccc2-n2cccc21"
  measurement-label: "IC50"
  data-value: 14
- molecule: "CN1CCCC1CON=C1c2sccc2-n2cccc21 (racemic)"
  measurement-label: "IC50"
  data-value: 14
- molecule: "Cc1csc2c1-n1cccc1/C2=N/OCC(C)N(C)C (centres unmarked)"
  measurement-label: "IC50"
  data-value: 11
